Catalogue of MIC values
# Tested on: Moraxella catarrhalis
# protocol-text: MIC against Gram-negative bacteria: Moraxella catarrhalis
# Type: cell-based
# condition-label: M. catarrhalis; 10 h cultivation at 37° C.
Field: numeric (µg/mL). Do not append units.

Worked examples, 3 substances total:
* PRT979 (LPDPCLSSPCAHGARCSVGPDGRFLCSCPPGYQGRSCR; listed as Homo sapiens) | 25
* PRT1034 (DENECEQNNGGCSEICVNLKNSYRCECGVGRVLRSDGKTCE; listed as Homo sapiens) | 12.5
* PRT913 (VINGCKGKPCKNGGTCAVASNTARGFICKCPAGFEGATCE; listed as Homo sapiens) | 50

Name the recorded MIC of the substance listed here: PRT1021 (LQNPCYIGTHGCDTNAACRPGPRTQFTCECSIGFRGDGRTCY; listed as Homo sapiens) 12.5

Please indicate MIC recorded for PRT925 (DINECHSDPCQNDATCLDKIGGFTCLCMPGFKGVHCE; listed as Homo sapiens) 12.5

Supply recorded MIC for PRT1040 (AAHPCVRAPCAHGGSCRPRKEGYDCDCPLGFEGLHCQ; listed as Homo sapiens) here. 25

State, in one line, measured MIC of PRT978 (DVDECASQPCQHGGSCIDLVARYLCSCPPGTLGVLCE; listed as Homo sapiens) 12.5

For the substance PRT1038 (FDMPCDETLCSADSFCVNDYTWGGSRCQCTLGKGGESCS; listed as Homo sapiens) , give its measured MIC value. 50

Quickly give me recorded MIC for PRT933 (HRDPCEKNRCQNGGTCVAQAMLGKATCRCASGFTGEDCQ; listed as Homo sapiens) 50

Note down MIC recorded for PRT1016 (RAGPCPPRGCSNGGTCQLMPEKDSTFHLCLCPPGFIGPDCE; listed as Homo sapiens) 100

Tell me measured MIC for PRT908 (LDNACLTNPCRNGGTCDLLTLTEYKCRCPPGWSGKSCQ; listed as Homo sapiens) please. 12.5

Answer with the recorded MIC of PRT1014 (LRDFCSANPCVNGGVCLATYPQIQCHCPPGFEGHACE; listed as Homo sapiens) only. 50

###

The reader will find reported MIC against K. pneumonia values listed item by item below.
# Test system: Klebsiella pneumonia
# protocol-text: MIC against Gram-negative bacteria: Klebsiella pneumonia
# Type: cell-based
# condition-label: 96-well plate, 5×10^5 CFU/mL, 37° C., 10 h
Report only the number, with the unit µg/mL understood.

A selection of reference data follows.
- PRT531 (CDCNLEGVLPEICDAHGRCLCRPGVEGPRCDTCRSGFYSFPICQA; listed as Homo sapiens): 25
- PRT448 (SFRCQCEPGFQLGPNNRSCVDVNE; listed as Homo sapiens): 50
- PRT487 (SLCDLQPDFCLNDGKCDIMPGHGAICRCRVGENWWYRGKHCE; listed as Homo sapiens): 25
- PRT543 (CGCHEVGATGPTCEPFGGQCPCHAHVIGRDCSRCATGYWGFPNCRP; listed as Homo sapiens): 50
- PRT544 (CDCGARLCDELTGQCICPPRTIPPDCLLCQPQTFGCHPLVGCEE; listed as Homo sapiens): 25
- PRT553 (CQCPGGRCDPHTGRCNCPPGLSGERCDTCSQQHQVPVPGGPVGHSIHCEV; listed as Homo sapiens): 12.5

Provide one value: measured MIC against K. pneumonia of PRT548 (CPCPLSVPSNNFAEGCVLRGGRTQCLCKPGYAGASCERCAPGFFGNPLVLGSSCQP; listed as Homo sapiens) 25

Could you please provide reported MIC against K. pneumonia for PRT476 (VVPVCRPNPCQNGATCSRHKRRSKFTCACPDQFKGKFCE; listed as Homo sapiens) ? Thanks! 12.5

In one line, give reported MIC against K. pneumonia of the entry PRT549 (CDCSGNGDPNLLFSDCDPLTGACRGCLRHTTGPRCEICAPGFYGNALLPGNCTR; listed as Homo sapiens) . 50

// Input: PRT552 (CACGPAAEGSECHPQSGQCHCRPGTMGPQCRECAPGYWGLPEQGCRR; listed as Homo sapiens) . Output its MIC against K. pneumonia only. 12.5

Please give measured MIC against K. pneumonia of the following entry: PRT567 (CTCDPAGSQNEGICDSYTDFSTGLIAGQCRCKLNVEGEHCDVCKEGFYDLSSEDPFGCKS; listed as Homo sapiens) 25

For PRT545 (CNCSGPGIQELTDPTCDTDSGQCKCRPNVTGRRCDTCSPGFHGYPRCRP; listed as Homo sapiens) , write its MIC against K. pneumonia. 25

Indicate the recorded MIC against K. pneumonia value for this substance: PRT454 (LPDQCTPNPCDRKGTQACQDLMGNFFCLCKAGWGGRLCD; listed as Homo sapiens) 50

Could you please provide reported MIC against K. pneumonia for PRT541 (CSCDLRGTLGGVAECQPGTGQCFCKPHVCGQACASCKDGFFGLDQADYFGCRS; listed as Homo sapiens) ? Thanks! 50

Values compiled from patent US9833497B2.
